Target: Corticotropin-releasing factor receptor 2/Corticotropin-releasing factor-binding protein (Homo sapiens, UniProt P24387+Q13324)
Sequence (Q13324 whole entry): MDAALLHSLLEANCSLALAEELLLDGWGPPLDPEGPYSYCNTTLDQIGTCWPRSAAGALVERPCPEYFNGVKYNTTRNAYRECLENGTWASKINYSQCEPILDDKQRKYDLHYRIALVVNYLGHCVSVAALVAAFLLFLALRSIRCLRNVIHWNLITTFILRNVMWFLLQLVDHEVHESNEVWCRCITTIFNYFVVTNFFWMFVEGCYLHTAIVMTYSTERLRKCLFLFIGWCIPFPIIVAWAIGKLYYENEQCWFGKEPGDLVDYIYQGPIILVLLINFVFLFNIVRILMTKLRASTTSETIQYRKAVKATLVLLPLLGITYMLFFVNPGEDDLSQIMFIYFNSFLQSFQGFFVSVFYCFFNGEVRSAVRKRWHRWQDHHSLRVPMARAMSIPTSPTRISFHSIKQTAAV
Sequence (P24387 whole entry): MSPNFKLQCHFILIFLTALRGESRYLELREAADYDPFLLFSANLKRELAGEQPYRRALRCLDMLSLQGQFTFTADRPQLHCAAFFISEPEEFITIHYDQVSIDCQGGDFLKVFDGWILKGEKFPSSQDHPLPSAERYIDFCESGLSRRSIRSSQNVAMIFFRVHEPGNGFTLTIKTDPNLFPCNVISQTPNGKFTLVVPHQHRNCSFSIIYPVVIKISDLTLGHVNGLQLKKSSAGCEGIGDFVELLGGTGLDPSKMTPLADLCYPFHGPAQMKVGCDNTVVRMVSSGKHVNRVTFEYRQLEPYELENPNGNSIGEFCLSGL
Test: Dose Response confirmation of uHTS hits for small molecule antagonists of the CRF-binding protein and CRF-R2 receptor complex.
Assay type: functional
Conditions: read-out: IC50_Mean
Active and inactive are the calls of the source. Cut-off read from the data, not from the text of the source: actives have a measured IC50 and inactives only a lower limit.
Write down the outcome that applies. Available outcomes: 1.0 = active, 0.0 = inactive

{"COMPOUND": "CC(=O)c1c(N2CCCCC2)nc(=S)n(Cc2ccccc2)c1C", "ASSIGNED LABEL": 0.0}

Challenge: Record lookup: outcome of this test for O=C(c1ccc(F)cc1)C1CCN(Cc2ccccc2F)CC1 ?
Response given: 0.0

Challenge: Moving on to Cc1cccc(N(C(=O)c2sc(C)nc2C)C(C(=O)NCC2CCCO2)c2ccccc2)c1 (stereo unspecified)
Response given: 0.0

Challenge: Moving on to O=C1CSC(c2nn(-c3ccccc3)cc2-c2cc3ccccc3oc2=O)N1Cc1ccco1 (stereo unspecified)
Response given: 1.0

Challenge: Moving on to O=C(O)CCNC(=O)OCC1c2ccccc2-c2ccccc21
Response given: 0.0

The measurements presented in this section are drawn from ChEMBL document CHEMBL1201862.
